# subject_of_test: T1, EsCas13d, nuclease-dead (Eubacterium siraeum, UniProt B0MS50, R295A;H300A;R849A;H854A)
# T1 sequence: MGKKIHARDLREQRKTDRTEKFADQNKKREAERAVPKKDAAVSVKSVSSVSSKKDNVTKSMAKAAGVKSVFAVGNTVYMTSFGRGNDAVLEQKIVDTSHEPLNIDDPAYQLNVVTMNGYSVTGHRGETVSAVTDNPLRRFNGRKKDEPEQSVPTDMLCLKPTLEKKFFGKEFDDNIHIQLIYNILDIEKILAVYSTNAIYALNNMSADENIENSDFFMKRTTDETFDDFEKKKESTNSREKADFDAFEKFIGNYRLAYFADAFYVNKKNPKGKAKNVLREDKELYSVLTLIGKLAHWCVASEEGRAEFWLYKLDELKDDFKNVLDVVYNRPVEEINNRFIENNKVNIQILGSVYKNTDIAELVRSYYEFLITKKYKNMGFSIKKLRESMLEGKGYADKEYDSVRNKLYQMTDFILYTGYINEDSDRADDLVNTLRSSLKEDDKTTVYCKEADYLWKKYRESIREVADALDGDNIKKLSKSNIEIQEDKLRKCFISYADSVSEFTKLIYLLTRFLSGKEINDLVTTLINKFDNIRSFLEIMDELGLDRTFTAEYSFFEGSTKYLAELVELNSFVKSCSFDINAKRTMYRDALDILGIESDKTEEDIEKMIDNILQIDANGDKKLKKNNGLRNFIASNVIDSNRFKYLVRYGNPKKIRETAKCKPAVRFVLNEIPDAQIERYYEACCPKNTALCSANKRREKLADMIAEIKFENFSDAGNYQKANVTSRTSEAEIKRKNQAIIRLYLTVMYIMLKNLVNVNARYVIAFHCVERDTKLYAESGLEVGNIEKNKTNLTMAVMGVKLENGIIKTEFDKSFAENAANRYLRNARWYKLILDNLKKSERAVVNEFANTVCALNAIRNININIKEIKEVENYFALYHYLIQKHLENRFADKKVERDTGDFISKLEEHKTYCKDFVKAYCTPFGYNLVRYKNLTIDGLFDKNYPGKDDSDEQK
# assay_text: crRNA (strand 1, pre-loaded); Mg2+; 40 mM Tris-HCl pH 7.5, 150 mM NaCl, 6 mM MgCl2, 1 mM DTT, 0.1% Tween-20, 0.2 mg/ml BSA; 25 C; 10 min per concentration, then washed
# experimental_conditions: tags: His6-TwinStrep-SUMO cleaved; N-terminal SNAP kept (SNAP-Surface 488); label: 3' end held by stalled T7 RNA polymerase
# pKd values compiled below
Worth noting: pKd values are minus log10 of concentrations stated in mol/L.

The examples below pair each entry with its known result.
{"binder": "target 1 MT 5'PFS UUG 3'PFS AUA (mixed) RNA 1: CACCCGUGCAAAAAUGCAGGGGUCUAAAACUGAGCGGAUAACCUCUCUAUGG RNA 2: GGGAAUGGAUCCACAUCUACGAAUUCUUGCCAUAGAGAGGUUAUCCGCUCAAUAAGAUCGGAAGAGCACACGU", "pKd": 7.23}
{"binder": "target 1 insA 3' of 21,insU 3' of 5 (mixed) RNA 1: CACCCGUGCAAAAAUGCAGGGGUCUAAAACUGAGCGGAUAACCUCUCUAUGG RNA 2: GGGAAUGGAUCCACAUCUACGAAUUCGUACCAAUAGAGAGGUUAUCCGUCUCACCGAGAUCGGAAGAGCACACGU", "pKd": 7.52}

Challenge: pKd lookup needed for target 1 G5C,U8G (mixed) RNA 1: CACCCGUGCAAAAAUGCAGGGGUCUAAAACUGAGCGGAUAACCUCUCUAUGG RNA 2: GGGAAUGGAUCCACAUCUACGAAUUCGUACCAUAGAGAGGUUAGCCCCUCACCGAGAUCGGAAGAGCACACGU , thanks.
Response given: 7.46

Challenge: pKd lookup needed for target 1 MT 5'PFS ACA 3'PFS AGA (mixed) RNA 1: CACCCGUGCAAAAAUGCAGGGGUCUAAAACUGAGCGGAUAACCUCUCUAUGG RNA 2: GGGAAUGGAUCCACAUCUACGAAUUCACACCAUAGAGAGGUUAUCCGCUCAAGAAGAUCGGAAGAGCACACGU , thanks.
Response given: 7.18

Challenge: pKd lookup needed for target 1 MT 5'PFS GAC 3'PFS UAG (mixed) RNA 1: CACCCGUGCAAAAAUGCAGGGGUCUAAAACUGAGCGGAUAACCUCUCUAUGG RNA 2: GGGAAUGGAUCCACAUCUACGAAUUCGACCCAUAGAGAGGUUAUCCGCUCAUAGAGAUCGGAAGAGCACACGU , thanks.
Response given: 7.56

Challenge: pKd lookup needed for target 1 MT 5'PFS ACU 3'PFS UUG (mixed) RNA 1: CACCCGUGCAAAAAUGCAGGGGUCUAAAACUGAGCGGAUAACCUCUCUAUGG RNA 2: GGGAAUGGAUCCACAUCUACGAAUUCACUCCAUAGAGAGGUUAUCCGCUCAUUGAGAUCGGAAGAGCACACGU , thanks.
Response given: 7.34

Challenge: pKd lookup needed for target 1 MT 5'PFS GUG 3'PFS GUG (mixed) RNA 1: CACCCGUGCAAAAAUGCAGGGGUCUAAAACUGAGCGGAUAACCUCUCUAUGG RNA 2: GGGAAUGGAUCCACAUCUACGAAUUCGUGCCAUAGAGAGGUUAUCCGCUCAGUGAGAUCGGAAGAGCACACGU , thanks.
Response given: 8.05

Challenge: pKd lookup needed for target 2 MT 5'PFS AAG 3'PFS CUA (mixed) RNA 1: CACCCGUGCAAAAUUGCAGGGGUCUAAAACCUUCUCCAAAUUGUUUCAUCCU RNA 2: GGGAAUGGAUCCACAUCUACGAAUUCAAGAGGAUGAAACAAUUUGGAGAAGCUAAGAUCGGAAGAGCACACGU , thanks.
Response given: 8.36
